Reference source for all entries: PubChem BioAssay AID1851

- Assay Target: Cytochrome P450 2D6 (Homo sapiens) (UniProt P10635)
- Sequence (P10635 whole entry, looked up): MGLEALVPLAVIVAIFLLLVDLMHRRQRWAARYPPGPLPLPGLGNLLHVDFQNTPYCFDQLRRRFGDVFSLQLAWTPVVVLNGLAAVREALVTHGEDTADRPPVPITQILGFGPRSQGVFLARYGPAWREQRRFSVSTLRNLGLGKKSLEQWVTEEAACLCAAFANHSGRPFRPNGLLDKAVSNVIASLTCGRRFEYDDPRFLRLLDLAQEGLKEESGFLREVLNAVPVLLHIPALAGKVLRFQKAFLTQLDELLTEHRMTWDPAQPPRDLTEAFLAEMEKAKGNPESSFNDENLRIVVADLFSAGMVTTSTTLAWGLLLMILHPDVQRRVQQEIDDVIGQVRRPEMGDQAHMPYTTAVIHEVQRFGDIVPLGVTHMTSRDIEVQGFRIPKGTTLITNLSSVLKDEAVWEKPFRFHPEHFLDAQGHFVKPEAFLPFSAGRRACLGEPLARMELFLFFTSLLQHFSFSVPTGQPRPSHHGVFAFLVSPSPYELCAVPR
- Method Description: Cytochrome panel assay with activity outcomes
- Conditions Used: recombinant CYP, pro-luciferin dealkylation, luminescence, p450-cyp2d6; series mostly up to 57.1 µM
The whole screen tested about 16,000 compounds, of which about 2,600 (16%) were called active. Inconclusive results (about 20%) are left out. A selection follows.
Property Label: AC50

Worked cases, answers included:
>  <Compound>
COc1ccc([N+](=O)[O-])cc1NC1C2CC3CC(C2)CC1C3 (stereo not drawn)

>  <AC50>
inactive

$$$$
>  <Compound>
Cc1cc(OC(=O)c2ccc(Cl)cc2Cl)nc(C)n1

>  <AC50>
inactive

$$$$
>  <Compound>
Cc1cc(C)n(-c2cc(N3CCN(S(=O)(=O)c4ccc(C)c(C)c4)CC3)ccc2[N+](=O)[O-])n1

>  <AC50>
0.501 µM (active)

$$$$
>  <Compound>
Cc1cc(C)n(-c2cc(N3CCN(C(=O)c4ccc(C(C)(C)C)cc4)CC3)ccc2[N+](=O)[O-])n1

>  <AC50>
inactive

$$$$
>  <Compound>
COc1cc2c(cc1OC)C(C(=O)Nc1ccc3c(c1)OCCO3)C(c1cccnc1)N(C)C2=O (stereo not drawn)

>  <AC50>
inactive

$$$$

Record AC50 per entry; entries follow.
1. Oc1cc(O)cc(/C=C\c2ccc(O)c(O)c2)c1
2. COCCn1c(C)cc(C2=NNC(=Nc3ccc(F)cc3)SC2)c1C
3. COc1ccc2[nH]cc(CCNc3ncnc4ccc(-c5ccoc5)cc34)c2c1
4. COc1ccc(-c2cc3ccccc3n2CC(O)CNCCO)cc1 (stereo not drawn)
5. CCOc1ccc(/C=N/Nc2nc(N3CCCC3)nc(N3CCCC3)n2)cc1OC

## Result
inactive
7.94 µM (active)
5.01 µM (active)
0.562 µM (active)
inactive

Record AC50 per entry; entries follow.
1. CN(C)CCCN1c2ccccc2C(C)(C)c2ccccc21
2. O=C(NCc1ccc(Cl)cc1)c1ccc(Cl)cc1[N+](=O)[O-]
3. CCCC(=O)N1CCN(c2ccc(NC(=O)c3sc4ccccc4c3Cl)cc2)CC1

## Result
["3.98 µM (active)", "inactive", "inactive"]

----------
- Assay Target: Cytochrome P450 2D6 (Homo sapiens) (UniProt P10635)
- Method Description: Cytochrome panel assay with activity outcomes
- Conditions Used: recombinant CYP, pro-luciferin dealkylation, luminescence, p450-cyp2d6; series mostly up to 57.1 µM
- Protocol: The P450 gene superfamily is involved in the metabolism and clearance of xenobiotics. This assay used various human CYP P450 isozymes to measure the dealkylation of various pro-luciferin substrates to luciferin. The luciferin is then measured by luminescence after the addition of a luciferase detection reagent. […] Inhibitors and some substrates limit the production of luciferin, and decrease measured luminescence. […] 8, Detection, 1 sec, ViewLux luminescent read […]
About 2,600 (16%) of roughly 16,000 compounds were called active. Inconclusive results (about 20%) are left out. Calls come from the whole dose curve; as a rule, active = well fitted curve in the direction sought with a large enough effect; inconclusive = small, poorly fitted or top-dose-only effect, or effect the other way; inactive = no such curve, though single readings can be large or run the other way. A selection follows.
Outcome field: choose from label 1 = active, label 0 = inactive

## Task Call for entry CCCc1nnc(NC(=O)c2cccs2)s1 :
## Result label 0

## Task Call for entry COc1cccc(C(=O)N2N=C(c3cccc(OC)c3)CC2(O)C(F)(F)F)c1 (configuration not stated) :
## Result label 0

## Task Call for entry COc1ccccc1-c1cc(N(C)Cc2ccco2)ncn1 :
## Result label 1

## Task Call for entry CCCCOC(=O)CCc1c(C)[nH]c(=O)c(C#N)c1C :
## Result label 0

## Task Call for entry N#CC1=C(N)OC2=C(CC/C2=C\c2ccccc2)C1c1ccccc1 (configuration not stated) :
## Result label 0

## Task Call for entry CCCc1nnc(NC(=O)CCC(=O)N2CCN(c3ccccn3)CC2)s1 :
## Result label 0

## Task Call for entry O=C(Nc1cnn(Cc2ccc(Cl)cc2)c1)c1ccc([N+](=O)[O-])cc1 :
## Result label 0

----------
- Assay Target: Cytochrome P450 2D6 (Homo sapiens)
- Method Description: Cytochrome panel assay with activity outcomes
- Conditions Used: recombinant CYP, pro-luciferin dealkylation, luminescence, p450-cyp2d6; series mostly up to 57.1 µM
Hit rate of the full screen: of about 16,000 compounds, about 2,600 (16%) were called active. Inconclusive results (about 20%) are left out. The call rests on the fitted dose curve; in most records, active means well fitted curve in the direction sought with a large enough effect; inconclusive means small, poorly fitted or top-dose-only effect, or effect the other way; inactive means no such curve, though single readings can be large or run the other way. Not all results are given here.
Outcome field: choose from yes (active), no (inactive)

For orientation, consider the following solved cases.
>  <Compound>
CS(=O)(=O)Nc1cccc(-c2ccc3ncnc(NC4CCNCC4)c3c2)c1

>  <Group>
no

$$$$
>  <Compound>
O=c1cnc2cnc(Oc3ccccc3)nc2n1CCc1ccccc1

>  <Group>
no

$$$$
>  <Compound>
CCCCCCCCC[n+]1cccc2c3ccccc3ccc21

>  <Group>
yes

$$$$

## Task Call for entry Cc1cc(NCCO)c2ccccc2n1 :
## Result no

## Task Call for entry Cc1cc(NC(=O)CCC(=O)N(CC2CCCO2)C(C(=O)NC2CCCC2)c2cccnc2)no1 (configuration not stated) :
## Result no

## Task Call for entry Cc1cccc2nc(C(F)(F)F)nc(=O)n12 :
## Result no

## Task Call for entry N#Cc1cccc(-c2ccc3ncnc(NC4CCNCC4)c3c2)c1 :
## Result no

## Task Call for entry CC(C)C(NS(=O)(=O)c1cccs1)C(=O)NCCN1CCN(c2ccccc2)CC1 (configuration not stated) :
## Result yes

## Task Call for entry COc1ccc(Oc2ncc3nc(-c4cccc(C#N)c4)c(=O)n(Cc4cccc(OC)c4)c3n2)cc1 :
## Result no

## Task Call for entry COc1ccc(CCNc2nc(-c3cccnc3)cs2)cc1OC :
## Result yes

----------
- Assay Target: Cytochrome P450 2D6 (Homo sapiens) (UniProt P10635)
- Method Description: Cytochrome panel assay with activity outcomes
- Conditions Used: recombinant CYP, pro-luciferin dealkylation, luminescence, p450-cyp2d6; series mostly up to 57.1 µM
About 2,600 (16%) of roughly 16,000 compounds were called active. Roughly 20% stayed inconclusive and do not appear here. Not all results are given here.

>  <Compound>
COc1ccc(-n2c(=O)c(-c3cccc(F)c3)nc3cncnc32)cc1

>  <outcome>
inactive

$$$$
>  <Compound>
Cc1cccc(C(=O)N/N=C/c2ccc(OCC(=O)N3CCCCC3)cc2)c1

>  <outcome>
inactive

$$$$
>  <Compound>
COc1cccc(-c2nccc(NC3CCNCC3)n2)c1

>  <outcome>
inactive

$$$$

----------
- Assay Target: Cytochrome P450 2D6 (Homo sapiens) (UniProt P10635)
- Method Description: Cytochrome panel assay with activity outcomes
- Conditions Used: recombinant CYP, pro-luciferin dealkylation, luminescence, p450-cyp2d6; series mostly up to 57.1 µM
Among all 16,000 compounds or so, about 2,600 (16%) were called active. Inconclusive results (about 20%) are left out. These entries were drawn from the full list.
Property Label: AC50

Worked cases, answers included:
>  <Compound>
COc1cc(C)ccc1OCCCOc1ccccc1Br

>  <AC50>
inactive

$$$$
>  <Compound>
c1ccc(N2CCN(CCCOc3ccc4c(c3)OCO4)CC2)cc1

>  <AC50>
126 nM (active)

$$$$
>  <Compound>
CC1(C)CC(=O)C2=C(C1)N(c1ccc(F)cc1)C(N)=C(C#N)C2c1cccs1 (centres undefined)

>  <AC50>
inactive

$$$$
>  <Compound>
O=c1c(-c2cc(F)cc(F)c2)nc2cnc(N3CCOCC3)nc2n1C[C@H]1CCCO1

>  <AC50>
inactive

$$$$

Record AC50 per entry; entries follow.
1. CCN1C(=O)CC(N2CCN(CC(=O)NC(C)C)CC2)C1=O (centres undefined)
2. O=C(N/N=C/c1ccco1)/C(=C/c1cccc([N+](=O)[O-])c1)NC(=O)c1ccccc1
3. CCNc1ncc2ncc(=O)n(Cc3ccc(F)cc3)c2n1
4. O=C(Nc1ccccc1)N1CCC2(CC1)CCN(C(=O)c1ccco1)CC2
5. Cc1noc(NS(=O)(=O)c2ccc(N)cc2)c1C

## Result
["inactive", "inactive", "inactive", "inactive", "inactive"]

----------
- Assay Target: Cytochrome P450 2D6 (Homo sapiens)
- Method Description: Cytochrome panel assay with activity outcomes
- Conditions Used: recombinant CYP, pro-luciferin dealkylation, luminescence, p450-cyp2d6; series mostly up to 57.1 µM
The campaign covered roughly 16,000 compounds. About 2,600 (16%) were called active. Not shown: some 20% with an inconclusive outcome. Calls follow the shape of the dose curve; as a rule, active = well fitted curve in the direction sought with a large enough effect; inconclusive = small, poorly fitted or top-dose-only effect, or effect the other way; inactive = no such curve, though single readings can be large or run the other way. The list is a sample of the results.
Outcome field: choose from class 1 = active, class 0 = inactive

For orientation, consider the following solved cases.
>  <Compound>
OC1CC2CC[C@H](C1)N2CCCN1c2ccccc2Sc2ccc(Cl)cc21 (stereo not given in full)

>  <Group>
class 1

$$$$
>  <Compound>
CC(C)(C)C(=O)Nc1nnc(SCC(=O)NCc2cccs2)s1

>  <Group>
class 0

$$$$
>  <Compound>
c1ccc(CSc2nnc(-c3sccc3-n3cccc3)o2)cc1

>  <Group>
class 1

$$$$
>  <Compound>
O=C1CSC2(CCN(CCCN3c4ccccc4Sc4ccc(Cl)cc43)CC2)N1

>  <Group>
class 1

$$$$

## Task Call for entry Cc1cccc(N(CC(=O)N2CCOCC2)S(C)(=O)=O)c1 :
## Result class 0

## Task Call for entry CSc1nc(Sc2cccc(Cl)c2)c2ccccc2n1 :
## Result class 0

## Task Call for entry O=C1c2cccc3c(Cl)ccc(c23)C(=O)N1O :
## Result class 0

## Task Call for entry Fc1ccc(CSc2nnc(-c3cc4c(s3)-c3ccccc3CC4)o2)cc1 :
## Result class 0

## Task Call for entry CCOC(=O)Nc1ccc2c(c1)N(C(=O)CCN1CCN(C)CC1)c1ccccc1S2 :
## Result class 0

## Task Call for entry COC(=O)C1=C(N)N(c2ccccc2C(F)(F)F)C2=C(C(=O)CCC2)C1c1ccc2c(c1)OCO2 (stereo not given) :
## Result class 1
